PROCEDURE DETAILS: yeast display, Sf9 membrane polyspecificity reagent, FACS + sequencing; frameworks hold sequencing errors
REPORTED PROPERTY: polyreactivity (PSR sort gate)

Illustrative cases are given below, each with its answer.
QVQLEESGVGLVQAGGSLRLSCADSGFSFRTNAMGWYRQAPGKERELVAAISRSSGSTYYADSVKGRFTISRDNSKNTVYLQMNSMKPEETAVYYCNAVRYYSRGYTRYDYWGQGSQVTVSS; high polyreactivity
QVQLVESGGGLVQAGGSLRLSCAASGITFYGNAMGLYRQAPGKERELVANTYYADSVKGRFTISRDNAKNTVYLQMNSLKPEDTAVYYCANRNARYRSLPPGYDYWGLGTQVTVSS; low polyreactivity
QVQLVESGGGLVQAGGSLRLSCAAYGRTLGYYAMGWYRPAPGQERELVAAITGSDGSTYADSVKGRFTISRDNAKNTVYLQMNSLKPEDTAVYYCNSKNEHGSLGFDYWGQGTQVTVSS; high polyreactivity
QVQLVESGGGLDQAGGSLRLSCAASGFTFYWYAMGWYRQAPGKEREFVAAIDQSGGSTYYADSVKGRFTISRDNAKNNVYLQMNSLKPEDTAVYYCAKLYNIGYDYWGLGTQVTVSS; low polyreactivity

Task: Field request: polyreactivity (PSR sort gate) | item: QVQLVESGGGLVQAGGSLRLSCAASGYIYRYNAMGWYRQAPGKEREFVASISQRGGSTYYADSVKGRFTISRDNAKNTVYLQMNSLKPEDTAVYYCAARLGYYSYEYNYWGQGTQVTVSS
Output: high polyreactivity

====

PROCEDURE DETAILS: yeast display, Sf9 membrane polyspecificity reagent, FACS + sequencing; frameworks hold sequencing errors
REPORTED PROPERTY: polyreactivity (PSR sort gate)

QVQLVESGGGLVQAGGSLRLICAASGSIITGYPMGWYRQAPGKERELVAGINSGTSTNFADSVKGRFTISRDNAKNTVFLQMNSMKPEDTAVYYCAKTAERRHYGVYRFDYWGQGTQVTVSS; low polyreactivity
QVQLVESGGGLVQAGGSLRLTCAASGFTFYGYAMGRYRQAPGKERELVAAISSSGTSTYSGDSVKGRFTISRDNAKNTVYLQMNSLKPEDTAVYYCAKDFYRRFYSWGQGTQVTLSS; high polyreactivity
QVQLVESGGGLVQAGGSLRLSSAASGSIFYRYAMGWYRQAPGKERELVAAITQSTDSTYYADSVKGRFTISRDNAKYNVYLQMNSLKPEDTAVYYCAAYLVYYRPYAYGYWGQGSQVTVSS; low polyreactivity
QVQLVESGGGLVQEGGSLRLSCAASGFIFGYYAMGWYRQAPGKERELVAAISFSDGITYYADSVKGRFTISRDNAKNTVYLQMNSLKPEDTAVYYCATEILDYYYGSEYDYWGQGTQVTVSS; high polyreactivity
QVQLVESGGGLVQAGGSLRLSCAASGFIFYTYAMGWSRLAPGKEREFVASISKSGGRTYYADSVKRRFTMSRDNAKNTVYLQMISLKPEVTAVYYCNAYRSTHFFSYRDDYWGQGTQVTVSS; high polyreactivity

Task: Dear colleague, I am looking for the recorded polyreactivity (PSR sort gate) of the following sequence: QVQHVESGGGIVQAVGSLRLSCAASGSIFYYNAMGWYRQAPGKERELVAAISSGGSTYYADSVKGRFTISRDNAKNTVYLQMNSLKPEDTAVYYCAAKPAFRYLYSRYYPELGGYWGQGTQVTVSS
Output: high polyreactivity

Task: QLQHVETGGGLVQAGGSLRLSCAASGSTFRSYVMGWYRQAPGKERELVAAISWITGSTYYADSVKGRFTISRDNAKNTVYLQMNSLKPEDTAVYDCAARYRTQSSLYYWGQGTQVTVSS ?
Output: high polyreactivity

Task: Then what about the sequence QVQLVESGGGLVQAGGSLRLSCAASGSIFGWYAMGWYRQAPGKERELVAGISWSGANTYYADSVKGRFTISRDNAKNTVYLQMNSLKPEDTAVYYCAAGPGLYYSRRYGYWGQGTQVTVSS ?
Output: high polyreactivity

Task: Would you mind doing QVQLVESGGGLVQAGGSLRLSCAASGSIFPDNVMGWYRQATGKERELVAAISRTGGSTYYADSVKGRFTISRDNAKNTVYLQMNSLKPEDTAVYYCNAKYRVPYAVGGDYGYWGQGTQVTVSS as well?
Output: high polyreactivity

Task: Let us now turn to QVQLVESGGGLVQAGGSLRLSCAASGIIFIVNSMGWYRQAPGKERELVADISENGGDTYYADSVKGRFTISRDNAKNTVYLQMNSLKPEDSAVYYCAKSGEPYTRFDYWGQGTQVTVSS
Output: low polyreactivity

Task: What about QVQLVESGGGLVQAGGSLRLSCAASGSTFDWYAMGWYRQAPGKDRELVAAISSDDSTYYADSVKGRFTISRDNAKNTVYLQMNSLIPEDTAVYYCAVDVYSDYGDYGYWGQGTQVTVSS ?
Output: low polyreactivity

Values were extracted from the nanobody polyreactivity screen of Harvey et al. (2022).
